Consider the following variants; for each one, report its protein stability index.
B1: FEM1A (parent)
chain: NIVEYLIQEQPGQEQVAGGEAQPG

variants of: B1; assay: protein stability index of a GFP-peptide fusion (GPS, HEK-293T) (PSI 1-6); higher = more stable; conditions: c terminus: a fixed tail appended;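 further: lentivirally expressed fusions sorted by FACS into six bins by GFP to DsRed ratio, PSI derived from sequencing read proportions per bin multiplied by bin number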

The cases that follow already have their protein stability index on record.
>>> experimental_result("N1C")
2.79
>>> experimental_result("Q10M")
3.21
>>> experimental_result("A21Q")
4.05

Batch: protein stability index for all items listed.
1. E20M
2. N1M
3. G12Q
4. G18L

Key:
[3.13, 2.16, 4.61, 3.54]
